- PROTOCOL TEXT: Cellular viability, WST-8 assay, without or with human liver microsomes
- Format: cell-based
- STUDY CONDITIONS: HepG2, with human liver microsomes; read-out: CC50 (μM) (+) microsome
- Protocol: Human liver cancer cell line HepG2 cells were cultured in a medium (high glucose Dulbecco's Modified Eagle Medium, DMEM, HyClone) supplemented with 10% fetal bovine serum (FBS, HyClone) and 1% antibiotic in a thermostat maintained at 37° C. with 5% CO2. […] After adding 10 μL of WST-8 (abCam), the absorbance was obtained at 460 nm after 5 seconds of orbital shaking with a microplate reader (Tecan, Spark©) 2 hours later. […]
Lab note: compare CC50 at 24 h with 40 µM, writing rule met if less and rule not met if equal or more.

In [3]: df
Out[3]:
                              sample_smiles  qualitative_label
0  CN(C)CCNC(=O)c1nc(-c2ccc(C#N)cc2)oc1-c1ccccc1           rule met
1  CN(C)CCNC(=O)c1nc(-c2ccc(Cl)cc2)oc1-c1ccccc1[N+](=O)[O-]           rule met
2  CN(C)CCNC(=O)c1nc(-c2ccc([N+](=O)[O-])cc2)oc1-c1ccccc1[N+](=O)[O-]       rule not met
3  CC(=O)N1CCN(CCNC(=O)c2nc(-c3ccc(C(F)(F)F)cc3)oc2-c2ccccc2[N+](=O)[O-])CC1       rule not met
4  CN1CCN(CCNC(=O)c2nc(-c3cc(F)cc(F)c3)oc2-c2ccccc2[N+](=O)[O-])CC1           rule met
5  CCOC(=O)c1nc(-c2ccc(C(F)(F)F)cc2)oc1-c1cccc([N+](=O)[O-])c1       rule not met
6  CSc1ccc(-c2nc(C(=O)NCCN3CCN(C)CC3)c(-c3ccccc3)o2)cc1           rule met
7  CN(C)CCNC(=O)c1nc(-c2cccc(Cl)c2)oc1-c1ccccc1           rule met
8  CSc1ccc(-c2nc(C(=O)NCCN(C)C)c(-c3ccccc3)o2)cc1           rule met

###

- Test system: Human liver cancer cell line HepG2 cells
- PROTOCOL TEXT: Cellular viability, WST-8 assay, without or with human liver microsomes
- Type: cell-based
- STUDY CONDITIONS: at 50 μM, HepG2, without human liver microsomes
Cellular viability (%) (−) microsome overview
OBSERVATION TYPE: Cellular viability (%) (−) microsome

>>> print(df.to_string())
                              sample_smiles                             system_tested                      observation_type  observed_result
0  O=C(NCCCn1ccnc1)c1nc(-c2ccc(C(F)(F)F)cc2)oc1-c1ccccc1[N+](=O)[O-]  Human liver cancer cell line HepG2 cells  Cellular viability (%) (−) microsome          17 at %
1  CN(C)CCNC(=O)c1nc(-c2ccc(OC(F)(F)F)cc2)oc1-c1ccccc1  Human liver cancer cell line HepG2 cells  Cellular viability (%) (−) microsome          19 at %
2  CN(C)CCN1CCN(C(=O)c2nc(-c3ccc(Cl)cc3)oc2-c2ccccc2[N+](=O)[O-])CC1  Human liver cancer cell line HepG2 cells  Cellular viability (%) (−) microsome          19 at %
3  CN1CCN(CCNC(=O)c2nc(-c3ccc(C(F)(F)F)cc3)oc2-c2ccccc2[N+](=O)[O-])CC1  Human liver cancer cell line HepG2 cells  Cellular viability (%) (−) microsome          19 at %
4  CN(C)CCNC(=O)c1nc(-c2ccc(F)c(F)c2)oc1-c1ccccc1  Human liver cancer cell line HepG2 cells  Cellular viability (%) (−) microsome          17 at %
